Test system: MS2 coat protein
test.summary: apparent KD of MS2 coat protein; designed switch direction (-1 OFF switch, 1 ON switch): -1; higher = weaker reporter binding
condition.details: input ligand: FMN 200 uM
Think of 90 nM as a floor: if apparent KD of MS2 coat protein stands on it or above, it is true (1); beneath it, false (0).

Query block: API: above_or_equal(metric=apparent KD of MS2 coat protein, cutoff=90 nM) for item UGUUGUCGCGCAGGAUAUGAGGAUCACCCAUAUACAGGAUAUGAAAAGAAGGGUCUGAGGAUCACCCAGAAGGGCGGGACAACU [pwkr exNG2 2xF5 2xFMN.27] (Eterna round: R96, puzzle: Exclusion NG 2)
Result block: true (1)

Query block: API: above_or_equal(metric=apparent KD of MS2 coat protein, cutoff=90 nM) for item AAUAACAAGCCGAUCCUUUACAUGAGGAUCACCCAUGUGCUCGUCUUGUAAAGUACUAUCACGAAAGUGAUAGUACA (Eterna round: R97, puzzle: Sensor, turn-off variant 1)
Result block: false (0)

Query block: API: above_or_equal(metric=apparent KD of MS2 coat protein, cutoff=90 nM) for item UAUUAUAAUGUAGGAUAUCUGCACGUUUAGUGCAGAGAAGGACAUGAGGAUCACCCAUGUAUAGUAGCUUCGGCUACAUUAUUU [ENG1-B2] (Eterna round: R96, puzzle: Exclusion NG 1)
Result block: true (1)

Query block: API: above_or_equal(metric=apparent KD of MS2 coat protein, cutoff=90 nM) for item ACAUGAGGAUCACCCAUGUCCGGCUGGUCCGUCUCGGCUGUCGAGGAUAUGGCUCGGUGUCCGCGCUAGAAGGUGGGAGCCGGC [Aenatbe mod 73] (Eterna round: R96, puzzle: Exclusion NG 3)
Result block: true (1)

Query block: API: above_or_equal(metric=apparent KD of MS2 coat protein, cutoff=90 nM) for item GCUGGUCGAGGAUAUACAUGAGGAUCACCCAUGUGAUUAGCAGUCCUCGGACUGCAAUGUAGAAGGCGACCAGC [E3/2-A1] (Eterna round: R97, puzzle: Exclusion 3)
Result block: true (1)

Query block: API: above_or_equal(metric=apparent KD of MS2 coat protein, cutoff=90 nM) for item GGGCCCGGAGGAUAUACAUGAGGAUCACCCAUGUAGGGCCCGGGUAUUUUUGGGCCCUGUAGAAGGCCGGGCCC [-41.6, -38.7 kcal, A 19%, 5c,0] (Eterna round: R97, puzzle: Exclusion 3)
Result block: false (0)

Query block: API: above_or_equal(metric=apparent KD of MS2 coat protein, cutoff=90 nM) for item CUUUACAAGCUAAGAUCCUACAUGAGGAUCACCCAUGUGGUCCGGUGACGUGAGUCACCGGACUUAGCUCGUCUUGC [salish99_S_TOV1_R5_094] (Eterna round: R97, puzzle: Sensor, turn-off variant 1)
Result block: false (0)

Query block: API: above_or_equal(metric=apparent KD of MS2 coat protein, cutoff=90 nM) for item CGCAAUGGAGGAUAUACAUGAGGAUCACCCAUGUGGUCCUUGAGAUUCCAAAAGUCAAGUAGAAGGUCAGCGGC [Eternabot (L1) Solution 45] (Eterna round: R97, puzzle: Exclusion 3)
Result block: true (1)

Query block: API: above_or_equal(metric=apparent KD of MS2 coat protein, cutoff=90 nM) for item UAUUAGCAAGCAAGAUCCCACAUGAGGAUCACCCAUGUGCUCGUCUUAUAAGGUACUGUGACGAGAGUCACGGUACC [Mat - Sensor, turn-off var - Eli Mod - D47] (Eterna round: R97, puzzle: Sensor, turn-off variant 1)
Result block: false (0)

Query block: API: above_or_equal(metric=apparent KD of MS2 coat protein, cutoff=90 nM) for item ACAUGACAGCUAGGAUAUAAAUGACAUGAGGAUCACCCAUGUUGUCCCAUGUUGAGGAUCACCCAUUAGAAGGAGCCACCCAUG [Exclusion NG2 S1] (Eterna round: R96, puzzle: Exclusion NG 2)
Result block: true (1)

Query block: API: above_or_equal(metric=apparent KD of MS2 coat protein, cutoff=90 nM) for item UGAAUAAUAGUAAGGAUAUCAGCCGCGAAAGUGGCUGAGAAGGUACAUGAGGAUCACCCAUGUGAAAUAAGAAU [Mod of Zala 19 - Jieux - Brourd's Mod of Exclusion 4] (Eterna round: R97, puzzle: Brourd's mod of Exclusion 4)
Result block: false (0)

Query block: API: above_or_equal(metric=apparent KD of MS2 coat protein, cutoff=90 nM) for item GCAGCUUAGUUAACAGACUGUUACAUGAGGAUCACCCAUGUACAGGAUAUGGUCUGGAUUACAGGCCAGAAGGGUACAAGCUGC [Eli exng3 - 018] (Eterna round: R96, puzzle: Exclusion NG 3)
Result block: false (0)

Query block: API: above_or_equal(metric=apparent KD of MS2 coat protein, cutoff=90 nM) for item CAGGGCAUAGGAUAUGCGGGUAAACACCAUGCAUUAGAAUGACAUGAGGAUCACCCAUGUAGAAGGAUGAUAGC [Eternabot (L1) Solution 98] (Eterna round: R97, puzzle: Exclusion 2)
Result block: false (0)

Query block: API: above_or_equal(metric=apparent KD of MS2 coat protein, cutoff=90 nM) for item GUGCUAUAGGAAGGAUAUACUUCAUUAGACUAACAUGAGGAUCACCCAUGUAACCUUAUGUAUGUGUAGAAGGUCCAUAGCUUA (Eterna round: R96, puzzle: Exclusion NG 2)
Result block: false (0)

Query block: API: above_or_equal(metric=apparent KD of MS2 coat protein, cutoff=90 nM) for item CACGGACGAUAAGGAUAUGUUAUAGCUCAAACAGCAGAAGGUGUUAAACCACCGUCACAUGAGGAUCACCCAUGUGUGACAGUU [Eternabot solution 34] (Eterna round: R96, puzzle: Exclusion NG 1)
Result block: false (0)

Query block: API: above_or_equal(metric=apparent KD of MS2 coat protein, cutoff=90 nM) for item UCUCGCGGGCAAGGAUAUCCUACGUUGUUCUGGCCCGUGCAUGUUACAUGAGGAUCACCCAUGUGGGAGAAGGUGCACCAGGGC [Design 38] (Eterna round: R96, puzzle: Exclusion NG 2)
Result block: false (0)

Query block: API: above_or_equal(metric=apparent KD of MS2 coat protein, cutoff=90 nM) for item GACGUGUUAGGAUAUAGCUCUCGGGACAGCAAUGAUCCGAGUUAGAAGGAACAUGAGGAUCACCCAUGUUAUUU [Eternabot (L2) Solution 60] (Eterna round: R97, puzzle: Exclusion 4)
Result block: false (0)
